Tested on: KM12 colon
measurement protocol: NCI tumour cell line growth inhibition, 48 h; in the data active = GI50 below about 0.43 µM; inactive = the rest
Possible outcomes: label 1 (active), label 0 (inactive)

> print(dat)
                                item.smiles  answer.label
1  Cc1nn(-c2ccc([N+](=O)[O-])cc2)c2ncnc(N/N=C/c3ccccc3O)c12       label 1
2  COc1ccc(C(=O)/C=C/c2cccc(Nc3ccnc4cc(Cl)ccc34)c2)cc1       label 0
3  O=C1C(SCCO)=C(SCCO)C(=O)N1c1ccc(-c2ccccc2)cc1       label 0
4  O=C(Nc1ccc(Oc2cccc(F)c2)c(Cl)c1)c1cnccn1       label 1
5  COC(=O)Nc1nc2ccc(Oc3cccc(NC(=O)Nc4cc(C(F)(F)F)ccc4F)c3)cc2[nH]1       label 0
